Conditions: glutathione crystals
Procedure: The crystals were observed and photographed using a VH-8000 digital microscope (Keyence Corporation). The width of approximately 300 crystals was measured and calculations performed.
quantity.measured: Average width (μm)
Quick reminder: number only, in μm, skip the unit.

Prompt line: # query: Average width of entry N[C@@H](CCC(=O)N[C@@H](CS)C(=O)NCC(=O)O)C(=O)O [Commercial product A]
Response line: 3

Prompt line: # query: Average width of entry N[C@@H](CCC(=O)N[C@@H](CS)C(=O)NCC(=O)O)C(=O)O [commercial product B]
Response line: 3

Prompt line: # query: Average width of entry N[C@@H](CCC(=O)N[C@@H](CS)C(=O)NCC(=O)O)C(=O)O [commercial product C]
Response line: 3

Prompt line: # query: Average width of entry N[C@@H](CCC(=O)N[C@@H](CS)C(=O)NCC(=O)O)C(=O)O [Example 1, gamma-L-glutamyl-L-cysteinyl glycine]
Response line: 25
